tested on: SK-MEL-2 melanoma; experiment: NCI tumour cell line growth inhibition, 48 h
Quantity Name: GI50

# lookup: N.N.N.N.N.O=C([O-])c1nn[n-]n1.[Cl-].[Co+3] on SK-MEL-2 melanoma, GI50 = > 100000 nM

# lookup: O=C(CCl)Nc1ccc(Cl)cc1 on SK-MEL-2 melanoma, GI50 = 2510 nM

# lookup: COc1ccc(OC)c(/C=C/C(=O)N/N=C/c2ccc(Cl)cc2)c1 on SK-MEL-2 melanoma, GI50 = 1060 nM

# lookup: O=C(c1cccc(O)c1O)c1cn(Cc2ccc(F)cc2)c2cccc(O)c12 on SK-MEL-2 melanoma, GI50 = 7930 nM

# lookup: COc1cc(NC(=O)c2cc(O)c(CC=C(C)C)c(O)c2)cc2c1O[C@]1(C)CC[C@@H](O)C(C)(C)[C@H]1C2 on SK-MEL-2 melanoma, GI50 = 1330 nM

###

system: HS 578T breast; assay: NCI tumour cell line growth inhibition, 48 h
Quantity Name: TGI

O=c1[nH]c2cccc([N+](=O)[O-])c2c(=O)n1-c1ccc(Cl)cc1 yielded TGI of 42 µM

C[C@]12CCC(O)CC1=CC[C@@H]1[C@@H]2CC[C@]2(C)C(O)[C@H](n3ccnc3)C[C@@H]12 (stereo not given in full) yielded TGI of > 100 µM

CC(C)OC(=O)c1ccc(NCC2=CC(=O)C=CC2=O)cc1 yielded TGI of 65.4 µM

Cc1sc2nc(N(C)C)oc(=O)c2c1C yielded TGI of > 100 µM

Cn1c(-c2cccs2)cc(-c2cccs2)c1-c1cccs1 yielded TGI of > 100 µM

NC(CSS(=O)(=O)O)=NC1CC2CCC1C2 (stereo not given) yielded TGI of > 100 µM

COc1cc(C2=NN(C(C)=O)C(c3ccc(OC(C)=O)cc3OC(C)=O)O2)c(OC(C)=O)c2ccccc12 (stereo not given) yielded TGI of > 100 µM

NC(N)=NCCCn1c2c(c3ccccc3c1=O)C(=O)c1ccccc1-2 yielded TGI of 25.7 µM

CC[C@@]1(O)C(=O)OCc2c1cc1n(c2=O)Cc2c-1nc1ccccc1c2/C=N\NC(=O)C[n+]1ccccc1 yielded TGI of > 100 µM

O=C1C2=Cc3ccccc3CCN2c2ccccc21 yielded TGI of > 100 µM

###

test system: SR leukemia; assay: NCI tumour cell line growth inhibition, 48 h
Quantity Name: TGI (µM)
Give a bare numeral; the unit µM is implied.

COc1cc2c(/C=C3/C(=O)Nc4ccc(O)cc43)c(Cl)n(Cc3ccccc3)c2cc1C yielded TGI of 3.35

COc1ccc(N2C(=O)C3c4[nH]c5ccc(C)cc5c4C4CCC(C(C)(C)C)CC4C3C2=O)cc1 (configuration not stated) yielded TGI of 32.4

COc1ccccc1C[C@@H]1OC2(C=CC(=O)CC2SC(=O)c2ccccc2)O[C@H]1Cc1ccccc1OC (some centres not stated) yielded TGI of 2.81

###

system: HCT-15 colon; assay: NCI tumour cell line growth inhibition, 48 h
Quantity Name: TGI

N=C1C(=N)c2ccccc2-c2ccccc21.[Cl-].[Ru+2].c1cnc2c(c1)ccc1cccnc12.c1cnc2c(c1)ccc1cccnc12 yielded TGI of > 100 µM

CC[C@@]1(O)C(=O)OCc2c1cc1n(c2=O)Cc2c-1nc1ccccc1c2/C=N\NC(=O)C[n+]1ccccc1 yielded TGI of > 100 µM

COc1c2c(cc3nc4ccccc4nc13)CCC(C(C)(C)O)C2 (stereo not given) yielded TGI of > 100 µM

CC1(C)C2CC(O)C1(C)CC2=O (stereo not given) yielded TGI of > 100 µM

CN(C)CC/C(=N\Nc1c(Cl)cccc1Cl)c1ccccc1 yielded TGI of 35.6 µM
